- assay.target: T1, 4H_BCR
- T1 chain: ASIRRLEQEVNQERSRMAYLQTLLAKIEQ
- method.description: two-hybrid library CCmax;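 note: natural log of median RNA to DNA barcode read ratio; higher means stronger binding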
- condition.context: mean of both orientations
observable: interaction score
The answer should be a number; do not append a unit.

Some binders with recorded interaction score:
binder | observable | recorded.number
DENAALKAEIAALKAKNAALEAEIAALKG [4H1650-AA] | interaction score | -1.36
DKIAALKAKIAALKAKNAALEAENAALEG [4H2931-AA] | interaction score | -1.73
DKIAALKAENAALEAENAALEAEIAALEG [4H2705-AA] | interaction score | -1.75

# next binder below
Task: Please report the recorded interaction score for DENAALKAKIAALEAENAALKAKIAALEG [4H1821-AA] .
Output: -1.69
